# Thermolysin (Bacillus thermoproteolyticus): log10 Ki values follow
# Sequence (P00800 233-548 limits assumed): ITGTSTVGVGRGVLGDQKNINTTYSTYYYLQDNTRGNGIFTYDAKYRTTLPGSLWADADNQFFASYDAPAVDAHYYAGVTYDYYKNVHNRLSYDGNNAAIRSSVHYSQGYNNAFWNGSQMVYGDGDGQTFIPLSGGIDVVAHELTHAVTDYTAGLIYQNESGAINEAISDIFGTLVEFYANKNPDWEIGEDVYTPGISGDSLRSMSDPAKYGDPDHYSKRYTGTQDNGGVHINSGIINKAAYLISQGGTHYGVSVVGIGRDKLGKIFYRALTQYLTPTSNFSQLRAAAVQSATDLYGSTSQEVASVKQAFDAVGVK
Plainly stated, the numbers are log10 of Ki given in nM.

# annotated cases, reported log10 Ki shown
COC(=O)[C@H](CC(C)C)NC(=O)[C@H](Cc1ccccc1)C[N+](=O)[O-] | 2.57
COC(=O)[C@H](Cc1ccccc1)NC(=O)[C@H](Cc1ccccc1)C[N+](=O)[O-] | 2.98
COC(=O)[C@H](Cc1ccccc1)NC(=O)[C@@H](CC(C)C)C[N+](=O)[O-] | 3.86
NC(=O)[C@@H](Cc1ccccc1)C[N+](=O)[O-] | 5.82

For the next question, use this compound.
Exercise: # input compound: COC(=O)[C@@H](Cc1ccccc1)NC(=O)[C@H](Cc1ccccc1)C[N+](=O)[O-] ; wanted: its log10 Ki
Solution: 3.15
